Listing: IC50 of selected molecules
- target: BRD4 BD1 (Homo sapiens)
- testMethodNotes: AlphaScreen binding assay, BRD4 Bromodomain 1

Example results:
CC(=O)N1c2ccc(-c3cnn(C4CC4)c3)cc2N(C(=O)OC2CCC(F)(F)CC2)C[C@@H]1C = 100 to 1000 nM
CC(=O)N1c2ccc(-c3ccc(S(=O)(=O)NCCO)cc3)cc2N(C(=O)OC2CCOCC2)C[C@@H]1C = 100 to 1000 nM
CC(=O)N1c2ccc(-c3cnn(C4CC4)c3)cc2N(C(=O)Oc2cc(F)ccc2C)C[C@@H]1C = 1000 to 10000 nM
CC(=O)N1c2ccc(-c3cnn(Cc4ccccn4)c3)cc2N(C(=O)OC(C)C)C[C@@H]1C = 100 to 1000 nM

Task: Name the reported IC50 value associated with the molecule "CC(=O)N1c2ccc(-c3cnn(C4CC4)c3)cc2N(C(=O)Oc2cncc(F)c2)C[C@@H]1C"
Result: 100 to 1000 nM

Task: Name the reported IC50 value associated with the molecule "COCCn1cc(-c2ccc3c(c2)N(C(=O)OC(C)C)C[C@H](C)N3C(=O)C2CC2)cn1"
Result: 100 to 1000 nM

Task: Name the reported IC50 value associated with the molecule "COC(=O)N1c2ccc(-c3cnn(Cc4cnccn4)c3)cc2N(C(=O)OC(C)C)C[C@@H]1C"
Result: 100 to 1000 nM

----------
- target: BRD4 BD2 (Homo sapiens, UniProt O60885)
- testMethodNotes: AlphaScreen binding assay, BRD4 Bromodomain 2
pIC50: −log10 of the molar value.
Listing: pIC50 of selected compounds

Example results:
CC(=O)N1c2ccc(-c3ccc(NS(C)(=O)=O)c(C)c3)cc2N(C(=O)C2CCC2)C[C@@H]1C = 6.30 to 7.30
CC(=O)N1c2ccc(-c3ccc(S(C)(=O)=O)cc3)cc2N(C(=O)OC2CCCC2)C[C@@H]1C = < 6.30

# input for lookup
Task: Name the reported pIC50 value associated with the compound "COC(=O)N1c2ccc(-c3ccc4c(c3)CCN4S(C)(=O)=O)cc2N(C(=O)Oc2cccnc2)C[C@@H]1C"
Result: < 6.30

----------
- target: BRD4 BD2 (Homo sapiens)
- testMethodNotes: AlphaScreen binding assay, BRD4 Bromodomain 2
pIC50: −log10 of the molar value.
readoutKind: pIC50

Example results:
COC(=O)N1c2ccc(-c3ccc(C4(O)COC4)cc3)cc2N(C(=O)C2CC2)C[C@@H]1C = 6.30 to 7.30
CC(=O)N1c2ccc(-c3cnn(C4CCCS(=O)(=O)C4)c3)cc2N(C(=O)OC2CCCC2)C[C@@H]1C (stereo partly drawn) = > 7.30
COc1cncc(CN2C[C@H](C)N(C(C)=O)c3ccccc32)c1 = < 6.30
CC(=O)N1c2ccc(-c3ccc4c(c3)CCN4S(C)(=O)=O)cc2N(C(=O)Oc2ccc(F)cc2)C[C@@H]1C = 6.30 to 7.30

Task: Name the reported pIC50 value associated with the compound "CC(=O)N1c2ccccc2N(C(=O)[C@H](C)c2ccccc2)C[C@@H]1C"
Result: < 6.30

Task: Name the reported pIC50 value associated with the compound "CC(C)OC(=O)N1C[C@H](C)N(C(=O)C2CC2)c2ccc(-c3ccc(CS(N)(=O)=O)cc3)cc21"
Result: < 6.30

Task: Name the reported pIC50 value associated with the compound "CNS(=O)(=O)c1ccc(-c2ccc3c(c2)N(C(=O)OC(C)C)C[C@H](C)N3C(C)=O)cc1"
Result: 6.30 to 7.30

Task: Name the reported pIC50 value associated with the compound "CCC1(COC(=O)N2C[C@H](C)N(C(C)=O)c3ccc(-c4cnn(C5COC5)c4)cc32)COC1"
Result: 6.30 to 7.30

Task: Name the reported pIC50 value associated with the compound "CC(=O)N1c2ccc(-c3cccc(NS(=O)(=O)N(C)C)c3)cc2N(C(=O)OC2CCCCC2)C[C@@H]1C"
Result: 6.30 to 7.30
